Test system: Enterococcus faecalis
Assay protocol: Minimum inhibitory concentration against Enterococcus faecalis (GC 4554) was determined
Format: functional
Test readout: MIC (µg/mL)
Respond with the bare value in µg/mL.

# lookup: MIC of CN[C@H](CC(C)C)C(=O)N[C@H]1C(=O)N[C@@H](CC(N)=O)C(=O)N[C@H]2C(=O)N[C@H]3C(=O)N[C@H](C(=O)N[C@H](C(=O)O)c4cc(O)cc(O)c4-c4cc3ccc4O)[C@H](O)c3ccc(c(Cl)c3)Oc3cc2cc(c3O[C@@H]2O[C@H](CO)[C@@H](O)[C@H](O)[C@H]2O[C@H]2C[C@](C)(N)[C@H](O)[C@H](C)O2)Oc2ccc(cc2Cl)[C@H]1O
0.5

// query: COc1ccc2cc(CO[C@H]3[C@H](O)[C@@H](CO)OC(O[C@H]4[C@H](O)[C@H](O)[C@@H](Oc5ccc(C[C@H]6NC(=O)[C@H]([C@@H](C)c7ccccc7)NC(=O)CNC(=O)[C@H](CO)NC(=O)[C@@H]([C@@H](O)[C@@H]7CN=C(N)N7[C@H]7O[C@H](O)[C@@H](O)[C@H](O)[C@@H]7O)NC(=O)[C@H]([C@@H](O)[C@@H]7CN=C(N)N7)NC6=O)cc5)O[C@@H]4CO)[C@H]3O)ccc2c1 (some centres undefined)
8

Same again, this time with COc1ccc2cc(COC[C@H]3O[C@H](O[C@H]4[C@H](O)[C@H](O)[C@@H](Oc5ccc(C[C@H]6NC(=O)[C@H]([C@@H](C)c7ccccc7)NC(=O)CNC(=O)[C@H](CO)NC(=O)[C@@H]([C@@H](O)[C@@H]7CN=C(N)N7[C@H]7O[C@H](O)[C@@H](O)[C@H](O)[C@@H]7O)NC(=O)[C@H]([C@@H](O)[C@@H]7CN=C(N)N7)NC6=O)cc5)O[C@@H]4CO)[C@@H](O)[C@@H](O)[C@@H]3O)ccc2c1
8
